# target.of.assay: murine pro-myostatin (mouse, UniProt O08689 25-376)
# assay.protocol: cell-based or functional assay
readout.type: EC50 Activation Assay (nM)
Response body: numeric value in nM, unit text excluded.

Some binders with known EC50 Activation Assay results, for comparison:
Ab7 (antibody, V domains shown) VH: QVQLQQSGAEVKKPGASVKVSCKASGYTFTSYYMHWVRQAPGQGLEWMGIINPSGGSTSYAQKFQGRVTMTRDTSTSTVYMELSSLRSEDTAVYYCARESLIRFLEDPQQGGMDVWGQGTTVTVSS VL: QSALTQPASVSGSPGQSLTISCTGTSSDIGGYNYVSWYQQHPGKAPKLIIYDVTDRPSGVSGRFSGSKSGNTASLTISGLQTEDEAEYFCNSWTRSNNYIFGGGTKLTVLG :: 555
Ab11 (antibody, V domains shown, Fully human antibody) VH: QLQLQQSGGGLVKPGGSLRLSCAASGFTFSSYSMNWVRQAPGKGLEWVSSISSSSSYIYYADSVKGRFTISRDNAKNSLYLQMNSLRAEDTAVYYCVRDRHSLGDFDYWGQGTLVTVSS VL: SSELTQPSVSVSPGQTATITCSGDKLGDKYASWYQQKPGQSPVLVIYQDTKRPSGIPARFSGSNSGNTATLTISGTQAMDEAAYYCQAWDSTTVVFGGGTKLTVLG :: 1380
Ab8 (antibody, V domains shown) VH: QIQLVQSGAEVKKPGASVKVSCKASGYTFTSYGISWVRQAPGQGLEWMGWISAYNGNTNYAQKLQGRVTMTTDTSTSTAYMELSSLRSEDTAVYYCARVGFYDYVWGSYPYDAFDIWGQGTMVTVSS VL: EIVMTQSPGTLSLSPGERATLSCRASQSVSSNYLAWYQQKPGQAPRLLIYDASNRATGIPARFSGSGSGTDFTLTISSLEPEDFALYYCQQYGTSPLTFGGGTKLEIKR :: 1600

Moving on to another binder below.
Bench note: what EC50 Activation Assay did Ab10 (antibody, V domains shown, also called anti-pro/latent GDF8 antibody, Ab10) VH: EVQLVQSGGGVVQSGRSLRLSCVASGFSFSNYGMHWVRQAPGKGLEWLAFIWYDGSNKWYADSVKGRFTISRDNSKNALYLQMNSLRAEDTAVYYCARDRYSSSWGGGFDYWGQGTVLTVSS VL: NFMLTQPHSVSESPGRTVTIPCSGRGGSIASDSVQWYQQRPGSAPTTIIYEDNQRPSGVPDRFSGSVDSSSNSASLTISGLRTEDEADYYCQSYDASSLWVFGGKTKLTVLG show?
373
